Data origin: PubChem BioAssay (NCI)

# Test system: NCI-H460 lung
# Procedure text: NCI-60 one-dose screen, 48 h (100 = growth as untreated, 0 = no growth, -100 = all killed)
# Experimental context: 10 µM unless noted
This is part of a sample that, as a whole, favours compounds with a hit. Of some 83,000 tested, about 20% had one in any assay.
Measurement name: growth (%)
# value in %; strip the unit string

Recorded growth of O=C(NNc1nc2cc(F)ccc2n2c(CN3CC4CNCC4C3)ccc12)c1ccncn1 (stereo not drawn) , please. 5.26

Recorded growth of Nc1nc(-c2ccccc2)c(N=Nc2ccc(Cl)cc2[N+](=O)[O-])s1 , please. 105

Recorded growth of O=C(O)c1cccc(-c2ccc(/C=N/NC(=O)c3[nH]c4ccc(Br)cc4c3-c3ccccc3)o2)c1 , please. 95.3

Recorded growth of COC(=O)C[C@](O)(CCCC(C)(C)O)C(=O)O[C@H]1C(OC)=C[C@@]23CCCN2CCc2cc4c(cc2[C@@H]13)OCO4 , please. -3.74

Recorded growth of Cc1nc(Nc2ccccn2)sc1C(=O)CC(SCC(=O)Nc1ccc(Cl)cc1)c1ccccc1F (stereo not drawn) , please. 6.78

Recorded growth of CN(C)c1nc(NCCNS(=O)(=O)c2ccc(C3=Nc4c(N)nc(N)nc4NC(c4ccc(Cl)cc4)C3)cc2)nc(Nc2ccc(F)cc2)n1 (stereo not drawn) , please. 19.4

Recorded growth of O=c1oc2ccc(Br)cc2cc1C1=CSc2nc3sc4c(c3c(=O)n2N=C1)CCCC4 , please. 102

Recorded growth of CN(C)c1nc(NCCNS(=O)(=O)c2ccc(C(=O)/C=C/c3ccc(F)cc3)cc2)nc(Nc2ccc(F)cc2)n1 , please. -75.2
